Attribute: binding affinity ratio (IC50 of standard peptide / IC50 of test peptide)
# test-target: HLA-A*3301 (human)
# assay-text: inhibition of 125I-labelled standard peptide binding to purified HLA
# respond with the number and nothing more

For the binder PVGAESRGR (modifications not checked) [HBV X 20 peptide …] , give its reported binding affinity ratio (IC50 of standard peptide / IC50 of test peptide). 0.0043

Please report the measured binding affinity ratio (IC50 of standard peptide / IC50 of test peptide) for PLEEELPR (modifications not checked) [HBV POL 20 peptide PLEEELPR] -0.0009
